# Measurement Protocol: chemical genetic growth profiling, strain panel (AID 1159580);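 also: tested at 20 µM; growth read once vehicle control cultures reached saturation at 30 °C; 1 = growth at the plate median or of vehicle wells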
# Experimental Setup: S. cerevisiae deletion strains, growth OD, locus YKL203C, strain TOR2, stronger effect = lower value
Among all 5,500 compounds or so, about 2,000 (36%) were called active. Another 18% or so got no clear call; they are omitted. The list shows a part of the results.
Catalogue of compounds with associated normalized growth
Lab note: record the figure alone, no unit after it.

Please review the following examples before continuing.
# Compound, Recorded Result
data = [
    ("C/C(=N/NC(N)=S)c1ccc(Oc2c(Cl)cncc2Cl)cc1", 1.06),
    ("Cc1c(C(=O)N2CCCCC2)cc(-c2ccccc2)n1-c1ccccc1", 0.981),
    ("O=C(Oc1cc(Cl)c(Cl)cc1Cl)C1c2ccccc2Oc2ccccc21", 0.958),
    ("N#Cc1c(Cl)c(Cl)c(Cl)c(Cl)c1C#N", 0.37),
    ("O=C(Nc1cc(Cl)cc(Cl)c1)Nc1cc(-c2cccs2)[nH]n1", 0.872),
    ("C/C(=N/NC(N)=S)c1ccccn1", 0.9),
]

Given "Cn1cncc1S(=O)(=O)/C(C#N)=C/c1ccccc1Sc1ccc(Cl)cc1" , state its recorded normalized growth.
0.815

Recorded normalized growth for Cc1oc2c(F)c(F)c(F)c(F)c2c1C(=O)ONC(N)c1ccc(OS(=O)(=O)N(C)C)cc1 (stereo not drawn) , please?
0.99

---

# Measurement Protocol: chemical genetic growth profiling, strain panel (AID 1159580);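 also: tested at 20 µM; growth read once vehicle control cultures reached saturation at 30 °C; 1 = growth at the plate median or of vehicle wells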
# Experimental Setup: S. cerevisiae deletion strains, growth OD, locus YDR297W, strain sur2, stronger effect = lower value
Hit rate of the full screen: of about 5,500 compounds, about 2,000 (36%) were called active. Another 18% or so got no clear call; they are omitted. Some of the results follow.
Observed Property: normalized growth
Give the figure only, with no unit attached.

Example entries and their recorded answers appear below.
# Chemical Structure, normalized growth
rows = [
    ("OCCN(CCO)c1nc(N2CCCCC2)c2nc(N(CCO)CCO)nc(N3CCCCC3)c2n1", 0.997),
    ("CC[C@H]1OC(=O)C[C@@H](O)[C@H](C)[C@@H](O[C@@H]2O[C@H](C)[C@@H](O[C@H]3C[C@@](C)(O)[C@@H](O)[C@H](C)O3)[C@H](N(C)C)[C@H]2O)[C@@H](CC=O)C[C@@H](C)C(=O)/C=C/C(C)=C/[C@@H]1CO[C@@H]1O[C@H](C)[C@@H](O)[C@@H](OC)[C@H]1OC", 0.995),
]

// switching to the query molecule
Which value of normalized growth has been reported for "C[CH2][Hg][S]c1ccccc1C(=O)O" in the records?
0.0559

---

# Measurement Protocol: chemical genetic growth profiling, strain panel (AID 1159580);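 also: tested at 20 µM; growth read once vehicle control cultures reached saturation at 30 °C; 1 = growth at the plate median or of vehicle wells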
# Experimental Setup: S. cerevisiae deletion strains, growth OD, locus YKR026C, strain gcn3
About 2,000 (36%) of roughly 5,500 compounds were called active. Roughly 18% stayed inconclusive and do not appear here. No stated cut-off is given here; in the data, active means normalized growth mostly below about 0.91 (no sharp cut-off); inconclusive means no clear call, values can overlap the other calls; inactive means mostly above about 0.92. The list shows a part of the results.
// one of y for active, n for inactive, no free text

# Molecule, Discrete Label
rows = [
    ("CCC1(C)CC(=O)NC1=O (stereo not given)", "n"),
    ("COc1ccc(C(=O)c2ccccc2O)c(O)c1", "y"),
    ("CCOC(=O)c1ncn2c1CN(C)C(=O)c1cc(F)ccc1-2", "n"),
    ("CCc1nc(N)nc(N)c1-c1ccc(Cl)cc1", "y"),
    ("COc1ccc2c(c1)OC[C@@H](Cc1ccc(OC)c(OC)c1)[C@H]2O", "n"),
]

Identify the outcome logged in this assay for the molecule shown: "COc1ccc2c(c1)OC[C@@H](Cc1ccc(OC)c(OC)c1)[C@@H]2O"
n

What did this assay record as the result for NCC1CCCCC1CC(=O)O (stereo not given) ?
n

What outcome does the record of this test show for "Cc1ccc(O)cc1" ?
n
